Each item that follows carries a reported pIC50.
Assayed target: OXA-10, lysate of KP1007 (Pseudomonas aeruginosa)
Sequence (P14489 20-266): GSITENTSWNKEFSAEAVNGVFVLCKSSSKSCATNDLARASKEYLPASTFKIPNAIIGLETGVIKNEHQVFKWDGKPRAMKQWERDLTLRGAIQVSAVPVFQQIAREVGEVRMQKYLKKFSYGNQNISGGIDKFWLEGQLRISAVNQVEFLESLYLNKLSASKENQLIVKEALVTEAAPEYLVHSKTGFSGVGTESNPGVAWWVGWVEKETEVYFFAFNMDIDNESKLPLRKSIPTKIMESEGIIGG
Assay: Inhibition of ceftazidime hydrolysis by bacterial lysate
pIC50: −log10 of the molar value.
Assay readout: pIC50

O=C(O)C[C@@H]1CC[C@H](NC(=O)Cc2ccccc2)B(O)O1    < 5.46
O=C(O)CC1CC[C@H](NC(=O)C2CC2)B(O)O1 (stereo partly drawn)    < 5.38
O=C(O)C[C@@H]1CC[C@H](NC(=O)Cc2cccs2)B(O)O1    5.47 to 6.47
CC(=O)N[C@H]1CCC(CC(=O)O)OB1O (stereo partly drawn)    < 5.33
Cl.N[C@H]1CCC(CC(=O)O)OB1O (stereo partly drawn) [Compound 7, hydrochloride]    < 5.32
C[C@]1(Cn2ccnn2)[C@H](C(=O)O)N2C(=O)C[C@H]2S1(=O)=O [Tazobactam, reference compound]    5.48 to 6.48

----------
Test system: strains expressing class A ESBLs
Format: cell-based
Experimental: Selected β-lactamase inhibitors were also tested for their ability to potentiate the monobactam tigemonam.
Assay readout: MPC4 SHV-12 KP1010

C[C@]1(Cn2ccnn2)[C@H](C(=O)O)N2C(=O)C[C@H]2S1(=O)=O [Tazobactam, reference compound]    1.25 µg/mL

----------
Test system: strains expressing class A ESBLs
Type: cell-based
Assay readout: MPC4 SHV-18 KP1012

C[C@]1(Cn2ccnn2)[C@H](C(=O)O)N2C(=O)C[C@H]2S1(=O)=O [Tazobactam, reference compound]    1.25 µg/mL

----------
Catalogue of pIC50 readings, one per entry.
Assayed target: various β-lactamases (bacterial lysates) (Salmonella typhimurium)
Assay: biochemical
Condition description: AZT IC50 KPX1001 OXA-2
pIC50: −log10 of the molar value.
Assay readout: pIC50

O=C(O)C[C@@H]1CC[C@H](NC(=O)[C@H]2Cc3ccccc3CN2)B(O)O1 [Compound 46]    < 5.22
NC1(CC(=O)N[C@H]2CC[C@@H](CC(=O)O)OB2O)CCCCC1 [Compound 51]    5.19 to 5.80
O=C(O)C[C@@H]1CC[C@H](NC(=O)Cc2cc(F)cc(F)c2)B(O)O1 [Compound 66]    > 5.82
O=C(O)C[C@@H]1CC[C@H](NC(=O)[C@@H]2CCCCN2)B(O)O1 [Compound 45]    < 5.15
O=C(O)C[C@@H]1CC[C@H](NC(=O)C[C@H]2CCCCN2)B(O)O1 [Compound 52]    < 5.17
O=C(O)C[C@@H]1CC[C@H](NC(=O)CCc2ccccc2)B(O)O1 [Compound 38]    5.18 to 5.79
O=C(O)C[C@@H]1CC[C@H](NC(=O)Cn2ccnc2-c2ccccc2)B(O)O1 [Compound 54]    5.25 to 5.85
O=C(O)C[C@@H]1CC[C@H](NC(=O)c2ccccc2)B(O)O1 [Compound 37]    5.14 to 5.74
CC(=O)N[C@H]1CCC(CC(=O)O)OB1O (stereo partly drawn) [Compound 3]    < 5.03

----------
IC50 listing for selected molecules.
Assayed target: OXA-2, lysate of KX1000 (Salmonella typhimurium)
Sequence (P0A1V8 22-275): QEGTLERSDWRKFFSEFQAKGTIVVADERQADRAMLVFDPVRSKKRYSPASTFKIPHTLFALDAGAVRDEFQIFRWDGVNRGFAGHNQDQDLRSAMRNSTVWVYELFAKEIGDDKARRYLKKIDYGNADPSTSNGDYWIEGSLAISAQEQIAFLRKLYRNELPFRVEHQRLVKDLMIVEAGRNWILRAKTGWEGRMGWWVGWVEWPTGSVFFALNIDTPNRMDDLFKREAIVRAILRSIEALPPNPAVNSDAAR
Assay: Inhibition of ceftazidime hydrolysis by bacterial lysate
Assay readout: IC50

O=C(O)C[C@@H]1CC[C@H](NC(=O)Cc2ccccc2)B(O)O1    0.344 to 3.44 µM
O=C(O)C[C@@H]1CC[C@H](NC(=O)Cc2cccs2)B(O)O1    < 0.337 µM
O=C(O)CC1CC[C@H](NC(=O)C2CC2)B(O)O1 (some centres unmarked)    > 4.15 µM
Cl.N[C@H]1CCC(CC(=O)O)OB1O (some centres unmarked) [Compound 7, hydrochloride]    > 4.77 µM
CC(=O)N[C@H]1CCC(CC(=O)O)OB1O (some centres unmarked)    > 4.65 µM
